system: ZR-75-1; assay: Cytotoxicity against human ZR-75-1 cells after 72 hrs by sulforhodamine B assay; format: functional; conditions: ZR-75-1, 72 h, read-out: ED50 (the source's name)
Measurement kind: EC50

# Line notation, Measurement kind, Recorded value
measured = [
    ("COC(=O)[C@]1(C)CC[C@]2(C)CC[C@]3(C)[C@H]4CC[C@@]56CO[C@@](O)(CC[C@H]5[C@]4(C)CC[C@@]3(C)[C@@H]2C1)[C@@H]6C", "EC50", "> 20 µg/mL"),
    ("CC1=C(O)C(=O)C=C2C1=CC=C1[C@@]2(C)CC[C@@]2(C)[C@@H]3C[C@@H](C)C(=O)C[C@]3(C)CC[C@]12C", "EC50", "0.2 µg/mL"),
    ("CC1=C(O)C(=O)C=C2C1=CC=C1[C@@]2(C)CC[C@@]2(C)[C@@H]3C[C@@](C)(O)C(=O)C[C@]3(C)CC[C@]12C", "EC50", "1 µg/mL"),
    ("C[C@@H]1[C@@]23CC[C@H]4[C@@](C)(CC[C@@]5(C)[C@@H]6C[C@](C)(C(=O)O)CC[C@]6(C)CC[C@]45C)[C@@H]2CC[C@@]1(O)OC3", "EC50", "> 20 µg/mL"),
    ("COC(=O)[C@]1(C)CC[C@]2(C)CC[C@]3(C)[C@H]4CC[C@]5(COC(C)=O)[C@@H](C)C(=O)CC[C@H]5[C@]4(C)CC[C@@]3(C)[C@@H]2C1", "EC50", "6.2 µg/mL"),
    ("CC1=C(O)C(=O)C=C2C1=CC=C1[C@@]2(C)CC[C@@]2(C)[C@@H]3C[C@](C)(C(=O)O)CC[C@]3(C)CC[C@]12C", "EC50", "0.4 µg/mL"),
]

----------
The entries below are paired with their reported EC50.
test system: MEL-2 (Homo sapiens); assay: Cytotoxicity against human MEL-2 cells after 72 hrs by sulforhodamine B assay; settings: MEL-2, 72 h, read-out: ED50 (the source's name)
Measurement kind: EC50 (µg/mL)

# Line notation, Measurement kind, Censoring operator, Recorded value
records = [
    ("COC(=O)[C@]1(C)CC[C@]2(C)CC[C@]3(C)[C@H]4CC[C@]5(COC(C)=O)[C@@H](C)C(=O)CC[C@H]5[C@]4(C)CC[C@@]3(C)[C@@H]2C1", "EC50", ">", 20),
    ("CC1=C(O)C(=O)C=C2C1=CC=C1[C@@]2(C)CC[C@@]2(C)[C@@H]3C[C@@H](C)C(=O)C[C@]3(C)CC[C@]12C", "EC50", "=", 0.2),
    ("C[C@@H]1[C@@]23CC[C@H]4[C@@](C)(CC[C@@]5(C)[C@@H]6C[C@](C)(C(=O)O)CC[C@]6(C)CC[C@]45C)[C@@H]2CC[C@@]1(O)OC3", "EC50", ">", 20),
    ("CC1=C(O)C(=O)C=C2C1=CC=C1[C@@]2(C)CC[C@@]2(C)[C@@H]3C[C@](C)(C(=O)O)CC[C@]3(C)CC[C@]12C", "EC50", "=", 0.6),
    ("COC(=O)[C@]1(C)CC[C@]2(C)CC[C@]3(C)[C@H]4CC[C@@]56CO[C@@](O)(CC[C@H]5[C@]4(C)CC[C@@]3(C)[C@@H]2C1)[C@@H]6C", "EC50", ">", 20),
    ("CC1=C(O)C(=O)C=C2C1=CC=C1[C@@]2(C)CC[C@@]2(C)[C@@H]3C[C@@](C)(O)C(=O)C[C@]3(C)CC[C@]12C", "EC50", "=", 1.5),
]

Hey, just so you know, these numbers are from ChEMBL document CHEMBL1149023.
